- test: in vitro
- condition_info: human, uninfected MT-4 cells
measure: CC50 at 5 days (µM)
Write the value in µM as a bare number.

Answered examples (3):
1) CCC1=NO[C@@]2(CC[C@H](C)N3C[C@H]2n2cc(C(=O)NCc4ccc(F)cc4F)c(=O)c(O)c2C3=O)O1 [Example 94]    30.2
2) CC1=NO[C@@]2(CC[C@H](C)N3C[C@H]2n2cc(C(=O)NCc4ccc(F)c(Cl)c4F)c(=O)c(O)c2C3=O)C1 [Example 6]    9.28
3) C[C@H]1CC[C@]2(CC(C(F)F)=NO2)[C@H]2CN1C(=O)c1c(O)c(=O)c(C(=O)NCc3ccc(F)cc3F)cn12 [Example 21]    29.3

Request: Query CC50 at 5 days for CO[C@H]1CS[C@]2(CC[C@H](C)N3C[C@H]2n2cc(C(=O)NCc4c(F)cc(F)cc4F)c(=O)c(O)c2C3=O)O1 (single isomer, unassigned) [170 (peak 1)]
Result: 42

Request: Query CC50 at 5 days for CC1=N[C@]2(CC[C@H](C)N3C[C@H]2n2cc(C(=O)NCc4ccc(F)cc4F)c(=O)c(O)c2C3=O)ON1C [Example 149b]
Result: 39.1

Request: Query CC50 at 5 days for CCC1=NO[C@@]2(CC[C@H](C)N3C[C@H]2n2cc(C(=O)NCc4ccc(F)cc4F)c(=O)c(O)c2C3=O)C1 [Example 8]
Result: 14.8

Request: Query CC50 at 5 days for C[C@H]1CC[C@]2(CC(S(C)(=O)=O)=NO2)[C@H]2CN1C(=O)c1c(O)c(=O)c(C(=O)NCc3c(F)cc(F)cc3F)cn12 [Example 154]
Result: 4.14
